Test: Probe fluorescence ratio response to arachidonic acid relative to ADIFAB2
Assay type: binding
Settings: arachidonic acid; response relative to ADIFAB2
Each record here notes measured DR/DR AA.
Answer with a bare number; do not write a unit.

104T 115A 74F 72A (protein, listed as Rattus norvegicus, PEPTIDE (1)...(131) wild-type rat intestinal fatty acid binding protein) AFDGTWKVDRNENYEKFMEKMGINVVKRKLGAHDNLKLTITQEGNKFTVKESSNFRNIDVVFELGVDFAYSAAFGTELTGTWTMEGNKLVGKFKRVDNGKELITVREISGNELIATYTYEGVEAKRIFKKE :: 2.635

Given the entry 17D, 72A (protein, listed as Rattus norvegicus, PEPTIDE (1)...(131) wild-type rat intestinal fatty acid binding protein) AFDGTWKVDRNENYEKDMEKMGINVVKRKLGAHDNLKLTITQEGNKFTVKESSNFRNIDVVFELGVDFAYSAADGTELTGTWTMEGNKLVGKFKRVDNGKELIAVREISGNELIQTYTYEGVEAKRIFKKE , report its measured DR/DR AA.
0.28

Given the entry 72T 73W 74G (protein, listed as Rattus norvegicus, PEPTIDE (1)...(131) wild-type rat intestinal fatty acid binding protein) AFDGTWKVDRNENYEKFMEKMGINVVKRKLGAHDNLKLTITQEGNKFTVKESSNFRNIDVVFELGVDFAYSTWGGTELTGTWTMEGNKLVGKFKRVDNGKELIAVREISGNELIQTYTYEGVEAKRIFKKE , report its measured DR/DR AA.
0.687

Cited source: patent US20060257938A1
